Tested on: mouse carcinogenicity bioassay, TD50 from CPDB
Experiment: DSSTox (CPDBAS) Carcinogenic Potency Database Summary Mouse Bioassay Results
Conditions: TD50_Mouse_Note: TD50 is harmonic mean of more than one positive test; no positive results are statistically significant; TargetSites_Mouse_Female: large intestine
readout.type: Potency

{"given.smiles": "COc1cc(CNC(=O)CCCC/C=C/C(C)C)ccc1O", "reading": "0.547 mmol/kg/day"}

====

Test system: mouse carcinogenicity bioassay, TD50 from CPDB
Experiment: DSSTox (CPDBAS) Carcinogenic Potency Database Summary Mouse Bioassay Results
Details: TD50_Mouse_Note: TD50 is harmonic mean of more than one positive test; TargetSites_Mouse_Female: ovary
readout.type: Potency

{"given.smiles": "CC/C(=C(\\c1ccccc1)c1ccc(OCCN(C)C)cc1)c1ccccc1", "reading": "0.00779 mmol/kg/day"}
